Cited source: patent US20210253718A1

Target: T1, FZD8-Fc (UniProt Q9H461 28-158, limits assumed)
T1 construct: extracellular domain; also called Frizzled-Fc chimera (FZD8); not shown: Fc part
T1 sequence (looked up): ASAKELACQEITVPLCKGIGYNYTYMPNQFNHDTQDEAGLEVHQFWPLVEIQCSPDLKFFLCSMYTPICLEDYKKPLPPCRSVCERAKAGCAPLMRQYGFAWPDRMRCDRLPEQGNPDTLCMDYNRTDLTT
Experiment: SPR, Frizzled-Fc chimera;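 also: binding targets are Fc fusions carrying an extracellular Frizzled fragment that contains the CRD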
reported.endpoint: koff (s⁻¹)
Give the value in s⁻¹ but do not write s⁻¹ after it.

Below are worked cases with known answers.
{"binder": "IgG-2910 (antibody, V domains shown) VH: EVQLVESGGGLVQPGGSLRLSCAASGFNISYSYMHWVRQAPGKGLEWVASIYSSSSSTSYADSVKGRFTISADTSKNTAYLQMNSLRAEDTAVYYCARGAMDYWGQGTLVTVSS VL: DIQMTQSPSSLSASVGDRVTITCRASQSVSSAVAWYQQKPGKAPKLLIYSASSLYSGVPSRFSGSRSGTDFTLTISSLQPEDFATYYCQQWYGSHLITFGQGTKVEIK", "assay.value": "2.28e-05"}
{"binder": "IgG-2916 (antibody, V domains shown) VH: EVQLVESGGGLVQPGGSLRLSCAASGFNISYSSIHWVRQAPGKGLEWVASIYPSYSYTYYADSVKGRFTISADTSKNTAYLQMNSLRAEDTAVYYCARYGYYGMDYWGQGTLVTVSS VL: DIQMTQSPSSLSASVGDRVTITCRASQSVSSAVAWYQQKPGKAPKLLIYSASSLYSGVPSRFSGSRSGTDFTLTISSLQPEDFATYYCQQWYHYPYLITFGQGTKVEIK", "assay.value": "4.75e-05"}
{"binder": "IgG-2920 (antibody, V domains shown) VH: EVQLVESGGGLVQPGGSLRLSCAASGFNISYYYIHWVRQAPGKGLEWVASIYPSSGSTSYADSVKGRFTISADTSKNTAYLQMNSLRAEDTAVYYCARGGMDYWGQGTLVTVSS VL: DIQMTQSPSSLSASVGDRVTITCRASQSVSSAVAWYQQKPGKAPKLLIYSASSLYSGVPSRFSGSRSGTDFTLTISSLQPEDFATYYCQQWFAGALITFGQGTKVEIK", "assay.value": 0.000238}

Looking up IgG-2919 (antibody, V domains shown, human IgG1 heavy chain (hG1), human kappa light chain (hK)) VH: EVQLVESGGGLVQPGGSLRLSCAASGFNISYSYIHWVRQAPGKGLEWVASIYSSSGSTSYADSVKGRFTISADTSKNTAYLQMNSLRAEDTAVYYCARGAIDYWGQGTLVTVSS VL: DIQMTQSPSSLSASVGDRVTITCRASQSVSSAVAWYQQKPGKAPKLLIYSASSLYSGVPSRFSGSRSGTDFTLTISSLQPEDFATYYCQQWYSSGHVLITFGQGTKVEIKR , I found its koff recorded as 2.28e-05

Looking up IgG-2921 (antibody, V domains shown) VH: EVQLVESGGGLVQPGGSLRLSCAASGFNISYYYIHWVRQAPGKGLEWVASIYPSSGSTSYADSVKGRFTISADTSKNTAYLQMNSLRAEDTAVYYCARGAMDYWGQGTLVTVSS VL: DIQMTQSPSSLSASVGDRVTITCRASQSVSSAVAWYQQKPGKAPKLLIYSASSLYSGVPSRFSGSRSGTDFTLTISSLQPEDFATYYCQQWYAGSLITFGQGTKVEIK , I found its koff recorded as 2.71e-05
